Data origin: paper PMC9000710

assay: Hemolysis assay (stability of erythrocytes); format: cell-based, human; settings: male, human, heparinized whole blood diluted with saline (erythrocytes), c 5 mg/L, 120 min
Reported metric: hemolysis at 120 min, 5 mg/L
Respond with a number, then the unit of measure.

Sample answers from the record:
Compound	hemolysis at 120 min, 5 mg/L
Cl.NCC(=O)NCCCCCC(=O)O [Amide 8]	0.74%
Cl.NCCCCCC(=O)NCCCCCC(=O)O [Amide 4]	0.74%
NCC(=O)NCC1CCC(C(=O)O)CC1 (stereo not drawn) [Amide 7]	0.21%
Cl.NCCCCCC(=O)NCc1ccc(C(=O)O)cc1 [Amide 2]	0.21%
NCCCCCC(=O)NCC1CCC(C(=O)O)CC1 (stereo not drawn) [Amide 3]	0.74%

What hemolysis at 120 min, 5 mg/L value was documented for this compound, Cl.NCC(=O)NCc1ccc(C(=O)O)cc1 [Amide 6] ?
0.56%

====

test system: human blood plasma; assay: Clot formation and fibrinolysis (CFF) assay; type: biochemical; settings: 50 mg/L; control plasma assumed as 100%; mean ± SD, n = 5–7
Counter-ions that a name gives are not always drawn. Where a SMILES comes first, the peptide text is derived from it.
Reported metric: VmaxF (of Fibrin Clot Lysis)

Sample answers from the record:
Compound	VmaxF (of Fibrin Clot Lysis)
Cl.NCCCCCC(=O)NCc1ccc(C(=O)O)cc1 [Amide 2]	85.69 ± 8.80 %
NCC(=O)NCC1CCC(C(=O)O)CC1 (stereo not drawn) [Amide 7]	87.27 ± 8.04%
NCCCCCC(=O)NCC1CCC(C(=O)O)CC1 (stereo not drawn) [Amide 3]	102.82 ± 20.01%
Cl.NCC(=O)NCCCCCC(=O)O [Amide 8]	66.90 ± 23.22 %
NCC(=O)NCC(=O)O [Amide 5, Glycylglycine hydrochloride] (H-Gly-Gly-OH)	89.46 ± 10.48 %
Cl.NCCCCCC(=O)NCC(=O)O [Amide 1]	95.58 ± 15.97%
Cl.NCC(=O)NCc1ccc(C(=O)O)cc1 [Amide 6]	91.08 ± 15.49%

Next item in the queue.
What VmaxF (of Fibrin Clot Lysis) value was documented for this compound, Cl.NCCCCCC(=O)NCCCCCC(=O)O [Amide 4] ?
55.95 ± 10.51 %

====

Form field: Amax (maximum of fibrin clot absorbance at 360 nm) (one value per entry).
tested on: human blood plasma; assay: Clot formation and fibrinolysis (CFF) assay; type: biochemical; details: 10 mg/L; control plasma assumed as 100%; mean ± SD, n = 5–7
Counter-ions that a name gives are not always drawn. Where a SMILES comes first, the peptide text is derived from it.
Respond with a number, then the unit of measure.

Sample answers from the record:
Compound	Recorded value
NCC(=O)NCC1CCC(C(=O)O)CC1 (stereo not drawn) [Amide 7]	115.64 ± 11.61 %
Cl.NCCCCCC(=O)NCCCCCC(=O)O [Amide 4]	115.37 ± 8.73 %
Cl.NCC(=O)NCc1ccc(C(=O)O)cc1 [Amide 6]	105.45 ± 5.46%
Cl.NCCCCCC(=O)NCc1ccc(C(=O)O)cc1 [Amide 2]	105.29 ± 6.41%

What Amax (maximum of fibrin clot absorbance at 360 nm) value was documented for this compound, NCCCCCC(=O)NCC1CCC(C(=O)O)CC1 (stereo not drawn) [Amide 3] ?
107.21 ± 6.90 %

Also Cl.NCCCCCC(=O)NCC(=O)O [Amide 1] ?
105.98 ± 4.31 %

Also Cl.NCC(=O)NCCCCCC(=O)O [Amide 8] ?
104.83 ± 2.83 %

Also NC[C@H]1CC[C@H](C(=O)O)CC1 [TA, reference compound] ?
106.67 ± 3.79 %

Also NCC(=O)NCC(=O)O [Amide 5, Glycylglycine hydrochloride] (H-Gly-Gly-OH) ?
106.44 ± 1.78 %

====

experiment: Hemolysis assay (stability of erythrocytes); format: cell-based, human; details: male, human, heparinized whole blood diluted with saline (erythrocytes), c 50 mg/L, 120 min
Reported metric: hemolysis at 120 min, 50 mg/L (%)
Answer format: numeric, % implied, no suffix.

Sample answers from the record:
Molecule	hemolysis at 120 min, 50 mg/L, %
Cl.NCCCCCC(=O)NCC(=O)O [Amide 1]	0.18
Cl.NCCCCCC(=O)NCc1ccc(C(=O)O)cc1 [Amide 2]	0.74
NCCCCCC(=O)NCC1CCC(C(=O)O)CC1 (stereo not shown) [Amide 3]	0
Cl.NCC(=O)NCCCCCC(=O)O [Amide 8]	0.71

What hemolysis at 120 min, 50 mg/L value was documented for this molecule, Cl.NCC(=O)NCc1ccc(C(=O)O)cc1 [Amide 6] ?
0.11

Also NCC(=O)NCC1CCC(C(=O)O)CC1 (stereo not shown) [Amide 7] ?
0.97

Also Cl.NCCCCCC(=O)NCCCCCC(=O)O [Amide 4] ?
0.71

====

assay: Hemolysis assay (stability of erythrocytes); assay type: cell-based, human; settings: male, human, heparinized whole blood diluted with saline (erythrocytes), c 50 mg/L, 240 min
Reported metric: hemolysis at 240 min, 50 mg/L (%)
Answer format: numeric, % implied, no suffix.

Compound	hemolysis at 240 min, 50 mg/L / %
Cl.NCC(=O)NCCCCCC(=O)O [Amide 8]	0.36

What hemolysis at 240 min, 50 mg/L value was documented for this compound, NCCCCCC(=O)NCC1CCC(C(=O)O)CC1 (stereo not shown) [Amide 3] ?
0.26

Also Cl.NCCCCCC(=O)NCCCCCC(=O)O [Amide 4] ?
0.32

Also NCC(=O)NCC1CCC(C(=O)O)CC1 (stereo not shown) [Amide 7] ?
0.64

Also Cl.NCCCCCC(=O)NCc1ccc(C(=O)O)cc1 [Amide 2] ?
0.3

Also Cl.NCC(=O)NCc1ccc(C(=O)O)cc1 [Amide 6] ?
0.2

Also Cl.NCCCCCC(=O)NCC(=O)O [Amide 1] ?
0.35

====

system: human blood plasma; assay: Clot formation and fibrinolysis (CFF) assay; type: biochemical; conditions: 50 mg/L; control plasma assumed as 100%; mean ± SD, n = 5–7
Where a name gives a salt, the structure may show the parent alone. Where a SMILES comes first, the peptide text is derived from it.
Reported metric: Amax (maximum of fibrin clot absorbance at 360 nm) (%)
Answer format: numeric, % implied, no suffix.

Sample answers from the record:
Molecule	Recorded value
NC[C@H]1CC[C@H](C(=O)O)CC1 [TA, reference compound]	106.64
Cl.NCCCCCC(=O)NCC(=O)O [Amide 1]	104.62

What Amax (maximum of fibrin clot absorbance at 360 nm) value was documented for this molecule, NCC(=O)NCC1CCC(C(=O)O)CC1 (stereo not drawn) [Amide 7] ?
113.54

Also NCC(=O)NCC(=O)O [Amide 5, Glycylglycine hydrochloride] (H-Gly-Gly-OH) ?
113.43

====

test system: human blood plasma; test: Clot formation and fibrinolysis (CFF) assay; type: biochemical; conditions: 50 mg/L; control plasma assumed as 100%; mean ± SD, n = 5–7
Form field: Amax (maximum of fibrin clot absorbance at 360 nm) (one value per entry).
Answer format: numeric, % implied, no suffix.

Compound	Target	Unit text	Recorded value
NCCCCCC(=O)NCC1CCC(C(=O)O)CC1 (centres unmarked) [Amide 3]	human blood plasma	%	112.98
Cl.NCC(=O)NCCCCCC(=O)O [Amide 8]	human blood plasma	%	108.64
Cl.NCC(=O)NCc1ccc(C(=O)O)cc1 [Amide 6]	human blood plasma	%	102.15
Cl.NCCCCCC(=O)NCc1ccc(C(=O)O)cc1 [Amide 2]	human blood plasma	%	110.77

What Amax (maximum of fibrin clot absorbance at 360 nm) value was documented for this compound, Cl.NCCCCCC(=O)NCCCCCC(=O)O [Amide 4] ?
109.29
